test system: Staphylococcus aureus; experiment: microbe, parasite or virus in culture; type: cell-based; conditions: Methicillin-susceptible (9)
List of MIC Range values.
measuredMetric: MIC Range

compound	measuredMetric	result
CO/N=C1\CN(c2nc3c(cc2F)c(=O)c(C(=O)O)cn3C2CC2)CC1CN (racemic) [Gemifloxacin]	MIC Range	0.031 to 0.25 µg/mL
CO/N=C(\C(=O)N[C@@H]1C(=O)N2C(C(=O)O)=C(/C=C\c3scnc3C)CS[C@H]12)c1csc(N)n1 [Cefditoren, cefditoren]	MIC Range	0.5 to 1 µg/mL
C[C@@H]1CN(c2c(F)c(N)c3c(=O)c(C(=O)O)cn(C4CC4)c3c2F)C[C@H](C)N1 [Sparfloxacin, sparfloxacin]	MIC Range	0.063 to 0.5 µg/mL
N[C@@H]1[C@H]2CN(c3nc4c(cc3F)c(=O)c(C(=O)O)cn4-c3ccc(F)cc3F)C[C@@H]12 [Trovafloxacin, trovafloxacin]	MIC Range	0.031 to 0.5 µg/mL
C[C@H]1COc2c(N3CCN(C)CC3)c(F)cc3c(=O)c(C(=O)O)cn1c23 [Levofloxacin, levofloxacin]	MIC Range	0.125 to 1 µg/mL
